Recorded values, source PubChem BioAssay (EPA / NIEHS).

biological target: Retinoic acid receptor RXR-alpha (Homo sapiens) (UniProt P19793); experiment: ATG_RXRa_TRANS: Attagene TRANS-FACTORIAL HepG2 Assay for human Retinoid X Receptor alpha (RXRa) (AID 2283012)
Sequence (P19793 whole entry, looked up): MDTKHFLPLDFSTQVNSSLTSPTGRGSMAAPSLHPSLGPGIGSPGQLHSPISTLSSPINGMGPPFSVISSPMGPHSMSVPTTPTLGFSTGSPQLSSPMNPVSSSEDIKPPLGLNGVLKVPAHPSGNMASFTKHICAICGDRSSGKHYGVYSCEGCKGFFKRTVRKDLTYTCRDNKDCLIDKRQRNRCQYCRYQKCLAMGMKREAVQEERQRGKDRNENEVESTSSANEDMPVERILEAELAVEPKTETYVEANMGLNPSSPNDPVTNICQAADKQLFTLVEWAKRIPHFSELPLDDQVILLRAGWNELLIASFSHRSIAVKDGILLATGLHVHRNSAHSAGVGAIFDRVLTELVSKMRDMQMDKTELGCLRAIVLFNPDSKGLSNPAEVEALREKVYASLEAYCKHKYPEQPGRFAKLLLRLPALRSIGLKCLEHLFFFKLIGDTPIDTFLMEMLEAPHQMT
Inconclusive results are not listed. Active and inactive are the calls of the source. The calls were made as follows: active = hit-call score of the fitted dose curve at least 0.9, where 1 is the maximum; inconclusive = response in the unintended direction; inactive = score below 0.9.
Labels: active, inactive

>  <compound>
COc1cc(C=O)ccc1O

>  <tested_target>
Retinoic acid receptor RXR-alpha (Homo sapiens) (UniProt P19793)

>  <assigned_label>
inactive

$$$$
>  <compound>
CCOC(=O)C(C)(C)Oc1ccc(Cl)cc1

>  <tested_target>
Retinoic acid receptor RXR-alpha (Homo sapiens) (UniProt P19793)

>  <assigned_label>
inactive

$$$$
>  <compound>
CN1CCCC1=O

>  <tested_target>
Retinoic acid receptor RXR-alpha (Homo sapiens) (UniProt P19793)

>  <assigned_label>
inactive

$$$$
>  <compound>
CCOc1ccc2c(c1)C(C)=CC(C)(C)N2

>  <tested_target>
Retinoic acid receptor RXR-alpha (Homo sapiens) (UniProt P19793)

>  <assigned_label>
active

$$$$
>  <compound>
C=CCc1ccc(O)c(OC)c1

>  <tested_target>
Retinoic acid receptor RXR-alpha (Homo sapiens) (UniProt P19793)

>  <assigned_label>
inactive

$$$$
>  <compound>
CN1CCN(Cc2cc(-c3ccc4[nH]c(=O)oc4c3)co2)[C@@H](c2ccc(F)cc2)C1

>  <tested_target>
Retinoic acid receptor RXR-alpha (Homo sapiens) (UniProt P19793)

>  <assigned_label>
inactive

$$$$
>  <compound>
COCCOC[C@H](CC1(C(=O)NC2CCC(C(=O)O)CC2)CCCC1)C(=O)Oc1ccc2c(c1)CCC2 (stereo partly specified)

>  <tested_target>
Retinoic acid receptor RXR-alpha (Homo sapiens) (UniProt P19793)

>  <assigned_label>
inactive

$$$$
>  <compound>
CCCCCCC(=O)OCC

>  <tested_target>
Retinoic acid receptor RXR-alpha (Homo sapiens) (UniProt P19793)

>  <assigned_label>
inactive

$$$$
>  <compound>
FC(F)(F)C(F)(F)C(F)(F)C(F)(F)C(F)(F)C(F)(F)CCI

>  <tested_target>
Retinoic acid receptor RXR-alpha (Homo sapiens) (UniProt P19793)

>  <assigned_label>
inactive

$$$$
>  <compound>
Cc1cccc([N+](=O)[O-])c1C

>  <tested_target>
Retinoic acid receptor RXR-alpha (Homo sapiens) (UniProt P19793)

>  <assigned_label>
inactive

$$$$
>  <compound>
Nc1ccccc1N

>  <tested_target>
Retinoic acid receptor RXR-alpha (Homo sapiens) (UniProt P19793)

>  <assigned_label>
inactive

$$$$
>  <compound>
CC(C)(C)c1cc(O)c(C(C)(C)C)cc1O

>  <tested_target>
Retinoic acid receptor RXR-alpha (Homo sapiens) (UniProt P19793)

>  <assigned_label>
active

$$$$
>  <compound>
COc1cc(/C=C/C(=O)CC(=O)/C=C/c2ccc(O)c(OC)c2)ccc1O

>  <tested_target>
Retinoic acid receptor RXR-alpha (Homo sapiens) (UniProt P19793)

>  <assigned_label>
inactive

$$$$
>  <compound>
CCCCCCCCCCCC(=O)OC

>  <tested_target>
Retinoic acid receptor RXR-alpha (Homo sapiens) (UniProt P19793)

>  <assigned_label>
inactive

$$$$
>  <compound>
Cc1oc(-c2ccccc2)nc1CCOc1cccc2c1ccn2CCC(=O)O

>  <tested_target>
Retinoic acid receptor RXR-alpha (Homo sapiens) (UniProt P19793)

>  <assigned_label>
active

$$$$
>  <compound>
CC(=O)OC/C=C(\C)CCC=C(C)C

>  <tested_target>
Retinoic acid receptor RXR-alpha (Homo sapiens) (UniProt P19793)

>  <assigned_label>
inactive

$$$$
>  <compound>
CC(=O)C(C)=CC1C(C)=CCCC1(C)C (stereo unspecified)

>  <tested_target>
Retinoic acid receptor RXR-alpha (Homo sapiens) (UniProt P19793)

>  <assigned_label>
inactive

$$$$
>  <compound>
Cc1ccc(Cl)cc1

>  <tested_target>
Retinoic acid receptor RXR-alpha (Homo sapiens) (UniProt P19793)

>  <assigned_label>
inactive

$$$$
>  <compound>
C1CCC(SSC2CCCCC2)CC1

>  <tested_target>
Retinoic acid receptor RXR-alpha (Homo sapiens) (UniProt P19793)

>  <assigned_label>
inactive

$$$$
>  <compound>
COc1ccc2c(c1)c(CC(=O)O)c(C)n2C(=O)c1ccc(Cl)cc1

>  <tested_target>
Retinoic acid receptor RXR-alpha (Homo sapiens) (UniProt P19793)

>  <assigned_label>
inactive

$$$$
>  <compound>
Nc1ccc(S(=O)(=O)c2ccc(N)cc2)cc1

>  <tested_target>
Retinoic acid receptor RXR-alpha (Homo sapiens) (UniProt P19793)

>  <assigned_label>
inactive

$$$$
>  <compound>
CCc1c(C(=O)NN2CCCCC2)nn(-c2ccc(Cl)cc2Cl)c1-c1ccc(Br)cc1

>  <tested_target>
Retinoic acid receptor RXR-alpha (Homo sapiens) (UniProt P19793)

>  <assigned_label>
inactive

$$$$
>  <compound>
O=C(N[C@@H](Cc1ccccc1)[C@@H](O)C(=O)N1C[C@@H](O)[C@@H](O)C1)c1cc2cc(Cl)ccc2[nH]1

>  <tested_target>
Retinoic acid receptor RXR-alpha (Homo sapiens) (UniProt P19793)

>  <assigned_label>
inactive

$$$$
>  <compound>
Nc1nc(N)c2nc(CNc3ccc(C(=O)N[C@@H](CCC(=O)O)C(=O)O)cc3)cnc2n1

>  <tested_target>
Retinoic acid receptor RXR-alpha (Homo sapiens) (UniProt P19793)

>  <assigned_label>
inactive

$$$$
>  <compound>
CCCCCCCCCCCCCO

>  <tested_target>
Retinoic acid receptor RXR-alpha (Homo sapiens) (UniProt P19793)

>  <assigned_label>
inactive

$$$$
>  <compound>
CCCCOC(=O)CCCCCCCCC(=O)OCCCC

>  <tested_target>
Retinoic acid receptor RXR-alpha (Homo sapiens) (UniProt P19793)

>  <assigned_label>
inactive

$$$$
